Listing: pIC50 of selected molecules
tested.on: Programmed cell death protein 1/Programmed cell death 1 ligand 1 (Homo sapiens, UniProt Q15116+Q9NZQ7)
Sequence (Q15116 whole entry): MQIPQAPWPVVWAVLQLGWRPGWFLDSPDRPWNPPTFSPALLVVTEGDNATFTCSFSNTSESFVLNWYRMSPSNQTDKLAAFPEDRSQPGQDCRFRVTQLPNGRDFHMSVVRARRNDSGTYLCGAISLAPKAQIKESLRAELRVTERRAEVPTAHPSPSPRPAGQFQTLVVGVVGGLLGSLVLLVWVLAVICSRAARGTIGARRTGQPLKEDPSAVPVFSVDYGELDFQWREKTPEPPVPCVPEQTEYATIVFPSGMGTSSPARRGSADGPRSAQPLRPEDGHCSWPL
Sequence (Q9NZQ7 whole entry): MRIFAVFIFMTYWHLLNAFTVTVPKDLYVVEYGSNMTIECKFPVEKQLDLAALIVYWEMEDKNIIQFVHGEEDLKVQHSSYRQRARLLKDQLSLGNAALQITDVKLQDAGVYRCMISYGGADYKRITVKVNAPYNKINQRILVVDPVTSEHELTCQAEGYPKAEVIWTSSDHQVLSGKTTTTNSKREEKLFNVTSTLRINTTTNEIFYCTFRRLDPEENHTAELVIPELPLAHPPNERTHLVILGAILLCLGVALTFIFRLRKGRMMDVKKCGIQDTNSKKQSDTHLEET
experiment.description: In Vitro Activity Assay: 1) Principle: PD-1 protein is with HIS tag, and PD-1 ligand PD-L1 is with hFc tag. Eu labeled anti-hFc antibody and XL665 labeled anti-HIS antibody are combined with the above two label proteins respectively. After laser excitation, energy can be transferred from donor Eu to receptor XL665, allowing XL665 to glow. […] Reagents should be dispensed in the following order. For 384-well white ELISA plate, 2 μl of diluent or target compound diluted with diluent was added to each well, and then 4 μl of PD-1 protein and 4 μl of PD-L1 protein were added per well, incubated for 15 min at room temperature; and 10 μl of a mixture of anti-Tag1-Eu3+ and anti-Tag2-XL665 was added per well and incubated for 1 h to 4 h at room temperature and the fluorescence signals at 665 nm and 620 nm were measured with an Envison instrument. HTRF rate=(665 nm/620 nm)[…]. 8-10 concentrations were detected for each compound and IC50 was calculated by Graphpad software.
The quantity pIC50 is defined as the negative base-10 logarithm of the molar concentration.

Illustrative cases are given below, each with its answer.
- chemical.string: "N#Cc1cccc(COc2cc(OCc3cccc(-c4ccccc4)c3Br)c(Cl)cc2CNCCO)c1"
  reported.value: 8.28
- chemical.string: "N#Cc1cccc(COc2cc(OCc3cccc(-c4ccccc4)c3Br)ccc2CN2CCOCC2)c1"
  reported.value: 6.34

Reported pIC50, molecule CS(=O)(=O)NCCNCc1ccc(OCc2cccc(-c3ccccc3)c2Br)cc1OCc1cccc(C#N)c1 : ____
6.01
